meta.source: patent US12590091B2

Target desc: human TLR9 (Homo sapiens)
Construct: host or cells: HEK-Blue cells
Method: TLR9 inhibition reporter assay (HEK-Blue cells, SEAP reporter)
Format: cell-based
Measurement setup: HEK-Blue cells overexpressing human TLR9, stimulated with ODN2006 5 nM, 22 hour incubation
Measure: IC50 (nM)

The cases that follow already have their IC50 on record.
compound="COCCN1CCC(O)(c2ccc(-c3cc4c(cc(-c5ccc(S(C)(=O)=O)cc5)n4C)c(C)n3)cc2F)CC1 [Example 92]" unit_tag=nM endpoint_result=109
compound="COc1ccc(-c2c(C)[nH]c3cnc(C4CCN(C(=O)C5CCN(C6CC6)CC5)CC4)cc23)cc1OC [Example 5]" unit_tag=nM endpoint_result=133
compound="COc1nc(-c2ccc(N3CCN(C(C)C)CC3)cc2)cc2c1cc(-c1ccc(S(C)(=O)=O)cc1)n2C [Example 119]" unit_tag=nM endpoint_result=543
compound="Cc1nc(-c2ccc(N3CCN(CCc4ccc(I)cc4)CC3)cc2)cc2c1cc(-c1ccc(S(C)(=O)=O)cc1)n2C [Example 110]" unit_tag=nM endpoint_result=58
compound="Cc1nc(-c2cc(F)c(N3CCN4CCCC4C3)cc2F)cc2c1cc(-c1ccc(S(C)(=O)=O)cc1)n2C (stereo not drawn) [Example 97]" unit_tag=nM endpoint_result=202

P. Cc1nc(-c2ccc(C3(O)CC4CCC(C3)N4CC(C)C)c(F)c2)cc2c1cc(-c1ccc(S(C)(=O)=O)cc1)n2C (stereo not drawn) [Example 91]
Q. Cc1nc(-c2ccc(C3(O)CCN(CC(C)C)CC3)c(F)c2)cc2c1cc(-c1ccc(S(C)(=O)=O)cc1)n2C [Example 90]
R. CC(C)N1CCN(c2ccc(-c3cc4c(cc(-c5ccc(S(C)(=O)=O)cc5)n4C)c(C(C)(C)O)n3)cc2)CC1 [Example 118]
Asked: Please rank these compounds by IC50 in descending order. Quick reminder: the answer is the labels in the order asked.
Given back: P, Q, R
(P: 735 nM, Q: 141 nM, R: 57 nM)

###

Target desc: human TLR9 (Homo sapiens, UniProt Q9NR96)
Sequence (Q9NR96 26-1032): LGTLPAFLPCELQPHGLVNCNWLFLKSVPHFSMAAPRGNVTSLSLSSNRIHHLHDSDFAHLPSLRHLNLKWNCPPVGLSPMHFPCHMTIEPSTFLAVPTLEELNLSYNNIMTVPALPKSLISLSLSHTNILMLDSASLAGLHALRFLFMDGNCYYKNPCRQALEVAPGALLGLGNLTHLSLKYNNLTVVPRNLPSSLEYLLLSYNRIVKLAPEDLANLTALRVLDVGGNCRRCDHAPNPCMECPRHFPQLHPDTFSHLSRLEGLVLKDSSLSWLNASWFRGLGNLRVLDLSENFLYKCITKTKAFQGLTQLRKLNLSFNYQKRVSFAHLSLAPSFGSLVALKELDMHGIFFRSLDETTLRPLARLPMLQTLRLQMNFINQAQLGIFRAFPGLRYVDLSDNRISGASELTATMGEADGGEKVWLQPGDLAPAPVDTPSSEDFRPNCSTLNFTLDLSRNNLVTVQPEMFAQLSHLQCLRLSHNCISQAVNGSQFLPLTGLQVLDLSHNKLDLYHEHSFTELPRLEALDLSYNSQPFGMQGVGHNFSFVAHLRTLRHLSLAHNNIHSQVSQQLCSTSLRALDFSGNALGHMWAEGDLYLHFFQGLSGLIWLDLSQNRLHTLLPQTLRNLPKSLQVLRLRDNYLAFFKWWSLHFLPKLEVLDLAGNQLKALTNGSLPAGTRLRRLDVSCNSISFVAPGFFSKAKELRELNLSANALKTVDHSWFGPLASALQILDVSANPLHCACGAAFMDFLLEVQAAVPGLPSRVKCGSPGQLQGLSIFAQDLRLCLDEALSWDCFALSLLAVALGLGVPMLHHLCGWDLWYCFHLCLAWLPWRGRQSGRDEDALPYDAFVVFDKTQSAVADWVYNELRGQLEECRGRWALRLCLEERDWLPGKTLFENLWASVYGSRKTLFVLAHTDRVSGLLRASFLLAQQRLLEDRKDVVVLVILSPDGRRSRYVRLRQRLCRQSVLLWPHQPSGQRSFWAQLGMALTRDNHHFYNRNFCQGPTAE
Method: TLR9 inhibition reporter assay (HEK-Blue cells, SEAP reporter)
Measurement setup: HEK-Blue cells overexpressing human TLR9, stimulated with ODN2006 5 nM, 22 hour incubation
pIC50: −log10 of the molar value.
Measure: pIC50

The cases that follow already have their pIC50 on record.
compound=COc1ccc(-c2c(C)[nH]c3cnc(C4CCN(c5cc(C)nc(C)c5)CC4)cc23)cc1OC endpoint_result=6.53
compound=COCCN1CCN(c2ccc(-c3cc4c(cc(-c5ccc(S(=O)(=O)C6CC6)cc5)n4C)c(C)n3)cc2)CC1 endpoint_result=6.41
compound=Cc1nc(-c2ccc(N3CCN(C(C)C)CC3)cc2)cc2c1cc(-c1ccc(S(=O)(=O)C3CC3)cc1)n2C endpoint_result=6.46
compound=Cc1nc(-c2ccc(CN3CCN(CCC(C)(C)O)CC3)cc2)cc2c1cc(-c1ccc(S(C)(=O)=O)cc1)n2C(F)F endpoint_result=6.25
compound=Cc1nc(-c2ccc(CN3CCN(CCC(C)(C)O)CC3)cc2)cc2c1cc(-c1ccc(S(C)(=O)=O)cc1)n2C1CC1 endpoint_result=7.23
compound="Cc1nc(-c2ccc(N3CCN4CCCC4C3)cc2)cc2c1cc(-c1ccc(S(C)(=O)=O)cc1)n2C (centres unmarked)" endpoint_result=6.84

A. COc1ccc(-c2c(C)c3cc(C4CCN(C5CCN(CC(C)C)CC5)CC4)ncc3n2C)cc1OC
B. Cc1nc(-c2cc(F)c(N3CC4CCC(C3)N4CCCO)cc2F)cc2c1cc(-c1ccc(S(C)(=O)=O)cc1)n2C
Asked: Please indicate which has the smaller reported pIC50: A , or B . Please reply using the label of the selected record.
Given back: A
